System: Human immunodeficiency virus 1
Measurement Notes: Antiviral activity against HIV1 infected human H9 lymphocytes assessed as suppression of viral replication
Format: functional, organism-based
Provide the recorded log10 EC50 for the entries that follow.
Please be aware that the numbers have been log10-transformed from EC50 in µg/mL.

Query string: Param request: log10 EC50 | system Human immunodeficiency virus 1 | item CC(=O)OC[C@]12[C@H](OC(C)=O)[C@H](OC(C)=O)[C@@H]3[C@@H](OC(=O)c4ccccc4)[C@@]14O[C@@]3(C)COC(=O)c1cccnc1C(C)C(C)C(=O)O[C@@H]([C@H](OC(C)=O)[C@@H]2OC(C)=O)[C@]4(C)O (stereo partly specified)
Result string: -0.05

Query string: Param request: log10 EC50 | system Human immunodeficiency virus 1 | item CC(=O)OC[C@]12[C@H](OC(C)=O)[C@H](OC(C)=O)[C@@H]3[C@@H](OC(C)=O)[C@@]14O[C@@]3(C)COC(=O)c1cccnc1C(C)C(C)C(=O)O[C@@H]([C@H](OC(C)=O)[C@@H]2OC(C)=O)[C@]4(C)O (stereo partly specified)
Result string: -0.70

Query string: Param request: log10 EC50 | system Human immunodeficiency virus 1 | item CC(=O)OC[C@]12[C@H](OC(C)=O)[C@H](OC(C)=O)[C@@H]3[C@@H](O)[C@@]14O[C@@]3(C)COC(=O)c1cccnc1C(C)C(C)C(=O)O[C@@H]([C@H](OC(C)=O)[C@@H]2OC(C)=O)[C@]4(C)O (stereo partly specified)
Result string: -0.06

Query string: Param request: log10 EC50 | system Human immunodeficiency virus 1 | item CC(=O)OC[C@]12[C@H](OC(C)=O)[C@H](OC(C)=O)[C@@H]3[C@@H](OC(=O)c4ccco4)[C@@]14O[C@@]3(C)COC(=O)c1cccnc1C(C)C(C)C(=O)O[C@@H]([C@H](OC(C)=O)[C@@H]2OC(C)=O)[C@]4(C)O (stereo partly specified)
Result string: 0.00

Query string: Param request: log10 EC50 | system Human immunodeficiency virus 1 | item CC(=O)O[C@@H]1[C@H](OC(C)=O)[C@@]2(COC(=O)c3ccco3)[C@H](OC(C)=O)C(=O)[C@@H]3[C@@H](OC(C)=O)[C@@]24O[C@@]3(C)COC(=O)c2cccnc2C(C)C(C)C(=O)O[C@@H]1[C@]4(C)O (stereo partly specified)
Result string: -1.00

Query string: Param request: log10 EC50 | system Human immunodeficiency virus 1 | item COC(=O)C[C@@H]1C(=O)CCC(C)C(=O)O[C@@H]2[C@@H]3[C@@H](OC(C)=O)[C@@]45O[C@@]3(C)COC(=O)c3cccnc3C(C)C(C)C(=O)O[C@@H]([C@H](OC(C)=O)[C@H](OC(C)=O)[C@@]4(COC1=O)[C@@H]2OC(C)=O)[C@]5(C)O (stereo partly specified)
Result string: 0.40

Query string: Param request: log10 EC50 | system Human immunodeficiency virus 1 | item CC(=O)OC[C@]12[C@H](OC(C)=O)[C@H](OC(C)=O)[C@@H]3[C@@H](OC(C)=O)[C@@]14O[C@@]3(C)COC(=O)c1cnccc1C(C)C(C)(O)C(=O)O[C@@H]([C@H](OC(=O)c1ccco1)[C@@H]2OC(C)=O)[C@]4(C)O (stereo partly specified)
Result string: -1.00

Query string: Param request: log10 EC50 | system Human immunodeficiency virus 1 | item CC(=O)OC[C@]12[C@H](OC(C)=O)[C@H](OC(C)=O)[C@@H]3[C@@H](OC(C)=O)[C@@]14O[C@@]3(C)COC(=O)c1cccnc1CCC(C)(O)C(=O)O[C@@H]([C@H](O)[C@@H]2OC(C)=O)[C@@]4(C)O (stereo partly specified)
Result string: 1.13

* * *

Tested on: Human immunodeficiency virus 1
Measurement Notes: Antiviral activity against HIV1 infected human H9 lymphocytes assessed as suppression of viral replication
Assay type: functional, organism-based
Test Readout: EC50

Query string: Report EC50 for CC(=O)OC[C@]12[C@H](OC(C)=O)[C@H](OC(C)=O)[C@@H]3[C@@H](OC(C)=O)[C@@]14O[C@@]3(C)COC(=O)c1cccnc1CCC(C)(O)C(=O)O[C@@H]([C@H](OC(=O)c1ccco1)[C@@H]2OC(C)=O)[C@]4(C)O (stereo partly drawn)
Result string: < 0.1 µg/mL

Query string: Report EC50 for CC(=O)OC[C@]12[C@H](OC(C)=O)[C@H](OC(C)=O)[C@@H]3[C@@H](OC(C)=O)[C@@]14O[C@@]3(C)COC(=O)c1cccnc1CCC(C)(O)C(=O)O[C@@H]([C@H](OC(=O)c1ccccc1)[C@@H]2OC(C)=O)[C@]4(C)O (stereo partly drawn)
Result string: < 0.1 µg/mL

Query string: Report EC50 for COC(=O)C[C@@H]1C(=O)CC[C@H](C)C(=O)O[C@@H]2[C@@H]3[C@@H](OC(C)=O)[C@@]45O[C@@]3(C)COC(=O)c3cnccc3[C@@H](C)[C@@H](O)C(=O)O[C@@H]([C@H](OC(C)=O)[C@H](OC(C)=O)[C@@]4(COC1=O)[C@@H]2OC(C)=O)[C@]5(C)O
Result string: < 0.1 µg/mL
